Source: the supplement of paper PMC9732359

- procedure text: protein stability index of a GFP-peptide fusion (yeast GPS) (PSI 1-4); higher = more stable; sorted into four equal gates, so the index is relative within each strain
- condition context: pdr5∆
# binarize protein stability index: threshold 3 inclusive, high side criterion met, low side criterion not met

> print(dat)
                entry.sequence        label.class
 1   YALQSVKLPRAFIDERA [RRP43]  criterion not met
 2    ILECDLLICIGTSLKVA [SIR2]  criterion not met
 3   LRKIQALRDVKNNNNAN [GAL11]  criterion not met
 4  QPHIFNNPKVKTSKRTK [RPS11A]  criterion not met
 5   TVRVDKASTYGELVLDI [SNF12]  criterion not met
 6    HPTVVDAIDNSDEITQD [IRR1]      criterion met
 7    VRILRLITTNSVEEVIL [SNF2]  criterion not met
 8   IVAKYDPPIIIFINYKQ [PRP28]  criterion not met
 9   LSNEFTATNSKGEQIAI [ECM29]      criterion met
10    LLCALDRKDQDDRDHFG [RPB2]      criterion met
11   KSKFNKSNRSYSIALSN [GAL11]  criterion not met
12    ILDIVINNPVNLTIHFG [FAS1]  criterion not met

----------
Here the recorded protein stability index is given for each entry.
- procedure text: protein stability index of a GFP-peptide fusion (yeast GPS) (PSI 1-4); higher = more stable; sorted into four equal gates, so the index is relative within each strain
- condition context: san1∆
parameter measured: protein stability index

> print(dat)
                        entry.sequence       parameter.measured  reported.value
 1            MDQDNNNHNDSNRLHPP [GRR1]  protein stability index            2.69
 2  KKDQSVLKSHSNDFEEG [YMR129W/POM152]  protein stability index            3.07
 3            SMTATADVLAMAKVEVN [RIP1]  protein stability index            2.43
 4           PFREFLQVLIDQLDSEA [ECM29]  protein stability index            3.08
 5  SDDQQEAVELVIGLDSE [YML103C/NUP188]  protein stability index            3.39
 6            IAAMVAQKCGWTIPHKK [SIR2]  protein stability index            2.06
 7          AGTQSSKFSKQQAKGAF [RPL24A]  protein stability index            3.27
 8            VEKRIGKIVSQRGKWNL [RGR1]  protein stability index            3.16
 9            NVYVLPKNLLKKFIEIS [PRP8]  protein stability index            2.06
10            KYFTELSHYIRQCFQDN [MED1]  protein stability index            1.92
11            LPLWHLLNRIPRMYHIG [POP1]  protein stability index            2.06
12            EQIDENWSKEDLQKLLK [SWI3]  protein stability index            3.02
13    VTDKYTAKKTNRSAYDS [YDL088C/ASM4]  protein stability index            2.96
14           DEHNELMRQALAIKDSK [RPO21]  protein stability index            2.29
15            EEYDDDDDNSNVDYYNV [SNF2]  protein stability index            2.93
16            TDWDPQFNAITGLNGSG [SMC2]  protein stability index             2.3
17            LKWSACTSLMDIIVAIK [IRR1]  protein stability index            2.44
18            EDLFETISQALLNAADR [PUP3]  protein stability index            1.89
19            NTSESLLVDIQKYNQIQ [SMC2]  protein stability index            1.66
20           DDSFFNETNDKKRNPSK [PRP28]  protein stability index            3.13
21            KKCIDFFEMLISKSLTF [RRI2]  protein stability index            1.96
22           SKKGKPTVNKKPKNKKK [SRP72]  protein stability index            2.45
23            TGNIKHEDLVNSIESKN [COR1]  protein stability index             3.2
24            WKIPQNDIPQTESPLKT [SSN2]  protein stability index            2.13
25           VDAYRRLENKLSEIESL [SRP68]  protein stability index            1.57
26            NDRKQTTVSNDLENSPL [SSN2]  protein stability index            3.13
27    NLRHERNSLETKLTTCK [YIL149C/MLP2]  protein stability index            2.93
28          NSRNAIRKLVKNGTIVK [RPL19A]  protein stability index            2.89
29            ELESITESITHDSSNGL [NUT1]  protein stability index            3.25
30          IQKESTLHLVLRLRGGI [RPL40A]  protein stability index            2.35

----------
- procedure text: protein stability index of a GFP-peptide fusion (yeast GPS) (PSI 1-4); higher = more stable; sorted into four equal gates, so the index is relative within each strain
- condition context: pdr5∆
Here the recorded protein stability index is given for each entry.
parameter measured: protein stability index

> print(dat)
                        entry.sequence       parameter.measured  reported.value
 1          RRFNSSIGRTAQGKEFG [RPL17A]  protein stability index            2.96
 2            DPLLSLYNFLHKYVLTL [RGR1]  protein stability index            2.12
 3            LIEILRLRALQLYFQKN [RRI2]  protein stability index            1.28
 4            NYNDLIVNYEDLATTQA [BRN1]  protein stability index             3.1
 5    LKKQLHVSHEAMREVND [YIL149C/MLP2]  protein stability index            2.24
 6    TEQTKSKNPLSLTEATK [YLR335W/NUP2]  protein stability index            2.97
 7            HWPLNWYLILSIISSKT [RGR1]  protein stability index             1.5
 8            NNVAYGKKRFRVVTVDG [SMC4]  protein stability index             2.1
 9          NPYNTRSNKIKVVKTPG [RPL34A]  protein stability index            1.93
10            GSTSLIEGMEQRIIKEL [ARP7]  protein stability index            3.23
11            ELQKSLSLEEVEGHLFE [FAS1]  protein stability index            3.32
12            SLHPLFEQFEKFYEEKL [RPN9]  protein stability index             2.9
13            NVSIVANYIKERTKNAQ [SMC4]  protein stability index            3.14
14            FLSPYISTHLKTICNLL [IRR1]  protein stability index            1.76
15            IGIAGAHRVRDLMDEEL [SKI6]  protein stability index            3.36
16            AIPLQQVLSQSADPSLL [SWI1]  protein stability index             2.5
17           PQNEKPPAYALLGSCQT [RPC25]  protein stability index            2.76
18            KDVAKPTGPKTAIDKNG [FAS2]  protein stability index            3.04
19           NYIYAGYENGMLAQWDL [RPN14]  protein stability index            3.07
20  ESGEFDFDLFKEVLPDL [YJL039C/NUP192]  protein stability index            3.26
21           ELDPECQLQNSDNSEEE [RRP43]  protein stability index            2.95
22            AKQALDLYHFALNYENE [SNF2]  protein stability index            2.83
23            KWDDLNEQLTLLSKKHG [RPN5]  protein stability index            2.92
24            LIQDLLHRLTPKNVKGE [RPN1]  protein stability index            3.27
25            ESSKLMTVTKVSLPEGS [BRR2]  protein stability index            2.33
26           MLGHYLGEFSITYTPVR [RPS15]  protein stability index            2.83
27           KMYDYEEKEESNLAATK [RPN11]  protein stability index            3.06
28           APLAKVVFRDPYKYRLR [RPL2A]  protein stability index            3.16
29           IGISIVGRFSTISSADF [ECM29]  protein stability index            2.54
30           VAEIVQNVISLGSLTVE [RPC82]  protein stability index            2.23
31   LNHILEKSTQLQQKHEL [YGR119C/NUP57]  protein stability index            2.91
32            LNWFRTTNMNVNNCIWA [RGR1]  protein stability index            1.34
33            LQYYILEYMNTARINNR [RRI2]  protein stability index            1.37
34            LKSKVIDSPELLSLIST [RPN7]  protein stability index            2.63
35            VTVDADIDDILKKGEQK [ISW2]  protein stability index            2.76
36          VGVGKLNKLYGGAKSRG [RPS19A]  protein stability index            3.39
37            ALEFVSLLLSSVKESTG [SRB4]  protein stability index            1.61
38            ATLKEIKSIIEQRKQKL [SMC3]  protein stability index            3.16
39            GAKFENIVHNFKERQMM [AAR2]  protein stability index            2.71
40            AHVFVGTCNGDITTSIM [RPN1]  protein stability index            2.78
41            DSRTTTGAYIANRVTDK [PRE3]  protein stability index            3.29
42            DKQARKQRTKKEDKSEA [SNF2]  protein stability index            3.54
43    IFGGAGGVPTTSFGQPQ [YOR098C/NUP1]  protein stability index            1.58
44            PHGISVFLSNLVETCLN [BRR2]  protein stability index            1.57
45            PVPESAGKADTSIRLEG [SRB4]  protein stability index            3.19
46            EKTMMTFGKPEEEDSIL [YCS4]  protein stability index            3.37
47           VVSTDLESIQKTKEAVA [RPL4A]  protein stability index            3.12
48            IYLSRFLIKASVREINL [SSN8]  protein stability index            1.86
49  GKQIKSTIYNWGDNKLA [YML103C/NUP188]  protein stability index            3.18
50            LTLKEAELLVLKILKQV [PUP2]  protein stability index             2.4
51            CSKAMGDLASLVLLNGR [RPP1]  protein stability index             2.9
52           RVQLSGKIQENIPFWKH [SRP72]  protein stability index            2.44
53           IDFAPTSPFGGARPGRV [RPS9A]  protein stability index            2.53
54            SEHVFDYFFYFLVLYDV [NUT1]  protein stability index            2.06
55            VCGIIVKQEDMPFNDQG [RET1]  protein stability index            2.87
56           DTNNEADLMALENATWT [SNF12]  protein stability index            3.18
57            DTSYKIDGKTVSYKDYS [SMC1]  protein stability index            2.79
58  TKRSIAIVFEEIKNWIS [YMR129W/POM152]  protein stability index            1.82
59            LLPTIKRTICKKCHRLL [RPR2]  protein stability index            2.36
60  VATNIVNEDPIFHPMIH [YML103C/NUP188]  protein stability index            2.63
